Provenance of the data: PubChem BioAssay

Experiment: compound effects on differentiated 3T3-L1 adipocyte viability – cell-based, 3T3-L1 adipocytes, calcein-AM fluorescence, 48 h, basal, profiling panel (AID 1163); note: test concentration not given here
Details: 3T3-L1 adipocytes viability, higher = more signal
Attribute: z-score
Output: the number by itself.

compound	quantitativeReadout
Cc1ccc(/C=C/C=O)cc1	-0.106
[N-]=[N+]=Nc1ccccc1C[C@]1(C(=O)NCc2ccccc2)N=C(c2ccc(OCCCO)cc2)O[C@H]1c1ccccc1N=[N+]=[N-]	0.0309
COC(=O)[C@@]1(Cc2ccccc2)[C@H]2c3cc(C(=O)N(C)C)n(CCc4c[nH]c5ccc(O)cc45)c3C[C@H]2CN1C(=O)c1ccccc1	0.389

Bench note: what z-score did COc1ccc([Si](C)(C)[C@@H]2[C@@H](CCn3cc([C@H](O)c4ccccc4)nn3)O[C@]3(C(=O)N(Cc4cccc(N5CCC5=O)c4)c4ccccc43)[C@H]2C)cc1 show?
0.745

Please do the same for O=c1cccc(-c2ccccc2Cl)o1 as well.
0.528

// next record CCCC1(C(=O)OC)C=C2C(=C(c3ccccc3)C(=O)C2C)CN1 (stereo not drawn)
-0.446

// next record NCCCCCNC(=O)[C@H]1C[C@H]2C(=O)N[C@@H](Cc3ccccc3)C(=O)N2[C@H]1c1cccc(OCCO)c1
-0.14

Subsequent entry: COC(=O)[C@@]1(Cc2ccccc2)[C@H]2c3cc(C(=O)N4CCCC4)n(Cc4c(CO)[nH]cc(C)c4=O)c3C[C@H]2CN1C(=O)c1ccccc1
-0.412
